# System: E. coli, NIHJ
# TEST_DETAILS: antibacterial activity (MIC), standard method of the Japan Society of Chemotherapy
# Type: cell-based
MEASURED_ATTRIBUTE: MIC

COc1c(N2CCC(C(N)C3CC3)C2)ccc2c(=O)c(C(=O)O)cn(C3CC3)c12 (stereo not shown) : 6 ng/mL
COc1c(N2CCC(C(N)C3CC3)C2)c(F)cc2c(=O)c(C(=O)O)cn(C3CC3F)c12 (stereo not shown) : ≦0.003 μg/ml
Nc1c(F)c(N2CCC(C(N)C3CC3)C2)c(F)c2c1c(=O)c(C(=O)O)cn2C1CC1F (stereo not shown) : ≦0.003 μg/ml
Cc1c(N2CCC(C(N)C3CC3)C2)c(F)c(N)c2c(=O)c(C(=O)O)cn(C3CC3F)c12 (stereo not shown) : ≦0.003 μg/ml
